tested on: U2OS; assay: Multiplex assay against U2OS; type: toxicity, cell-based; details: human, 24 h, 10 µM, compound concentration 10 uM, replicate 2
measure: Population Pyknosed Nuclei (%)
Give bare numbers, in %.

molecule | Population Pyknosed Nuclei (%)
CN1CCN(c2ccc(OC(F)(F)F)c(Nc3ncc4c(n3)-c3c(c(C(N)=O)nn3CCO)CC4)c2)CC1 | 11

Give Population Pyknosed Nuclei (%) for all molecules that follow.
1. COc1ncc(-c2ccc3nccc(-c4ccnnc4)c3c2)cc1NS(=O)(=O)c1ccc(F)cc1F
2. OC1(c2ccc(Cl)cc2)CCN(Cc2c[nH]c3ccccc23)CC1
3. Cn1cc(-c2[nH]c3cc(NC(=O)[C@H](N)C4CCCCC4)cc4c3c2C=NNC4=O)cn1
4. Cc1nc(-c2ccc(-c3ccc(C(=O)N4CCc5cc6c(cc54)C4(CCN(C)CC4)CO6)cc3)c(C)c2)no1
5. c1cn2cc(-c3ccc4cn[nH]c4c3)nc(Nc3ccc(N4CCOCC4)cc3)c2n1
6. CNc1nc(NCc2ccc(NS(C)(=O)=O)cc2Cl)cc(-c2ccccn2)n1
7. Cc1c(-c2ccc(O)cc2)n(Cc2ccc(OCCN3CCCCCC3)cc2)c2ccc(O)cc12

49
51
36
26
64
12
47
